- testedOn: Human GPR40 (Homo sapiens (Human), UniProt O14842)
- Sequence (O14842 whole entry): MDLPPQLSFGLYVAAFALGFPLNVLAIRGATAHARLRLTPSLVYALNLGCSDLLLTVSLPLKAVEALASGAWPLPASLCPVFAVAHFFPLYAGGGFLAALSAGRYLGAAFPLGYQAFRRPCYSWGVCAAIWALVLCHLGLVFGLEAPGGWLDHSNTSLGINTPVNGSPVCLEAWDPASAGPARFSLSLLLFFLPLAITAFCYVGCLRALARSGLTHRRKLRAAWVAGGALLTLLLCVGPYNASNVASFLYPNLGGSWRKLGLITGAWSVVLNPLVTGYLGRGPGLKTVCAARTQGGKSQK
- protocolDescription: FLIPR assay, agonist-induced calcium mobilization in GPR40/CHO NFAT BLA cells
- Assay type: cell-based
Entries and their measured log10(EC50) follow.
Plainly stated, the numbers are log10 of EC50 given in nM.

Reference set (5 entries):
compound	log10(EC50)
COc1cccc(C2CC2COc2cccc([C@@H](CC(=O)O)C3CC3)c2)c1 (some centres unmarked) [Example 61]	1.38
COc1ccc(F)cc1CN1CC(COc2cccc([C@@H](CC(=O)O)C3CC3)c2)C1	2.70
CC1(C)CN(Cc2cc(C(F)(F)F)ccc2C(F)(F)F)CC1COc1cccc([C@@H](CC(=O)O)C2CC2)c1 (some centres unmarked)	1.93
C[C@H](C(=O)O)[C@H](c1cccc(OCC2CN(Cc3cc(C(F)(F)F)ccc3C(F)(F)F)C2)c1)C1CC1	0.15
O=C(O)C[C@H](c1cccc(OC2CCN(Cc3cccc(C(F)(F)F)c3)C2)c1)C1CC1 (some centres unmarked)	2.59

Return log10(EC50) measured with Human GPR40 (Homo sapiens (Human), UniProt O14842) given this compound: O=C(O)C[C@H](c1cccc(OCCC2CCN(Cc3cc(C(F)(F)F)ccc3C(F)(F)F)C2)c1)C1CC1 (some centres unmarked)
2.24

Return log10(EC50) measured with Human GPR40 (Homo sapiens (Human), UniProt O14842) given this compound: COc1ccc(F)cc1CN1CCC(Oc2cccc([C@@H](CC(=O)O)C3CC3)c2)C1 (some centres unmarked)
2.05

Return log10(EC50) measured with Human GPR40 (Homo sapiens (Human), UniProt O14842) given this compound: C[C@H](C(=O)O)[C@H](c1cccc(OCC2CCN(Cc3cc(C(F)(F)F)ccc3C(F)(F)F)C2)c1)C1CC1 (some centres unmarked)
1.00

Return log10(EC50) measured with Human GPR40 (Homo sapiens (Human), UniProt O14842) given this compound: `C[C@H](C(=O)O)[C@H](c1cccc(OCC2CN(c3cc(C(F)(F)F)ccn3)C2)c1)C1CC1`
1.90

Return log10(EC50) measured with Human GPR40 (Homo sapiens (Human), UniProt O14842) given this compound: CC(c1cc(Cl)ccc1Cl)N1CC(COc2cccc([C@@H](CC(=O)O)C3CC3)c2)C1 (some centres unmarked)
1.36

Return log10(EC50) measured with Human GPR40 (Homo sapiens (Human), UniProt O14842) given this compound: COc1ccc(F)cc1CN1CCC(COc2cccc([C@@H](CC(=O)O)C3CC3)c2)C1 (some centres unmarked)
2.42

Return log10(EC50) measured with Human GPR40 (Homo sapiens (Human), UniProt O14842) given this compound: `C[C@H](C(=O)O)[C@H](c1cccc(OCC2CCN(Cc3cc(C(F)(F)F)ccc3C(F)(F)F)CC2)c1)C1CC1`
0.00

Return log10(EC50) measured with Human GPR40 (Homo sapiens (Human), UniProt O14842) given this compound: O=C(O)C[C@H](c1cccc(OC2CCN(Cc3cc(C(F)(F)F)ccc3C(F)(F)F)C2)c1)C1CC1 (some centres unmarked)
1.86

Return log10(EC50) measured with Human GPR40 (Homo sapiens (Human), UniProt O14842) given this compound: C[C@H](C(=O)O)[C@H](c1cccc(OCC2CN(Cc3cc(C(F)(F)F)ccc3C(F)(F)F)CCO2)c1)C1CC1 (some centres unmarked)
1.32

Values from patent US10059667B2
